Value source: ChEMBL document CHEMBL1201862

# Tested on: SF-268
# assay: NCI tumour cell line growth inhibition, 48 h
Active and inactive are the calls of the source. No stated cut-off is given here; in the data, active = GI50 up to about 1.1 µM and inactive = higher.
Outcomes you can answer with include only these: active, inactive

molecule	class.name
O=C(O)c1ccc(NNC(=O)c2cccc3c(=O)c4ccccc4[nH]c23)cc1	inactive
O=C1CC(=O)NC(NNS(=O)(=O)c2ccc(Cl)cc2)=N1	inactive
CN(C)/C=C/c1nnc([N+](=O)[O-])s1	inactive
COc1c(O)cc2c(c1O)C(=O)/C(=C/c1ccc(O)cc1)CO2	inactive
N#Cc1ccccc1NC(=O)C(=O)c1c(O)c2ccccc2oc1=O	inactive
O=C(N/N=C\c1cccc(O)c1)c1ccncc1	inactive
O=C(Nc1nc(C23CC4CC(CC(C4)C2)C3)cs1)c1cc2ccccc2oc1=O	inactive
CN(/N=C/c1cccc2cccnc12)c1ccccc1	inactive

query: What outcome does the record of this test show for `COc1ccc2c(c1)[n+]([O-])c(-c1c(Cl)cccc1Cl)c(N)[n+]2[O-]` ?
result: inactive

query: What outcome does the record of this test show for O=C(/C=C/c1ccc(O)c(O)c1)OC1C[C@@](O)(C(=O)O)C[C@@H](O)[C@H]1OC(=O)/C=C/c1ccc(O)c(O)c1 (stereo not given in full) ?
result: inactive

query: What outcome does the record of this test show for C=C1C(=O)OC2C1C(OC(=O)/C(C)=C/C)CC(O)(CCl)C1C(O)C3OC3(C)C21O (stereo not given) ?
result: inactive

query: What outcome does the record of this test show for CC1(C)CC2=C(Sc3ccccc3N2)C(=O)C1C(=O)C(=O)Nc1cccc([N+](=O)[O-])c1 (stereo not given) ?
result: inactive

query: What outcome does the record of this test show for `COC(=O)CCCC(=O)C1=NN(c2ccc(Cl)cc2)Cc2ccccc2N1` ?
result: inactive

query: What outcome does the record of this test show for CCC1C(=O)OCc2c1cc1n(c2=O)C(CC)c2c-1nc1ccccc1c2Cl (stereo not given) ?
result: inactive

query: What outcome does the record of this test show for COC(=O)C1C(=O)N(C)C(=O)N2CCCC12 (stereo not given) ?
result: inactive

query: What outcome does the record of this test show for `O=C(O)c1ccccc1-c1ccccc1C(=O)Nc1ccc2c(c1)Cc1ccccc1-2` ?
result: inactive

query: What outcome does the record of this test show for `COc1ccc(N(C)S(=O)(=O)c2ccccc2)cc1` ?
result: inactive

query: What outcome does the record of this test show for `CC(C)=CCC/C(C)=C/Cc1c(O)c(C)cc2c1[nH]c1cc(O)ccc12` ?
result: inactive

query: What outcome does the record of this test show for `COc1ccc(-c2cc(-c3ccc(Nc4ccnc5cc(C(F)(F)F)ccc45)cc3)nc(N)c2C#N)c2ccccc12` ?
result: inactive

query: What outcome does the record of this test show for `O=C(Nc1ccc(S(=O)(=O)/N=c2\ncccn2C(=O)C(C(F)(F)F)C(F)(F)F)cc1)C(C(F)(F)F)C(F)(F)F` ?
result: inactive

query: What outcome does the record of this test show for `O=C1c2ccccc2C(=O)N1c1ccc(Cc2ccc(N3C(=O)c4ccccc4C3=O)cc2)cc1` ?
result: inactive

query: What outcome does the record of this test show for COc1ccc(C2SCC(=O)N2NC(=O)c2ccc(NC(C)=O)cc2)c(OC)c1 (stereo not given) ?
result: inactive

query: What outcome does the record of this test show for `N=C(N)NS(=O)(=O)c1ccc(NC(=O)c2cccc3c(Nc4ccc(S(N)(=O)=O)cc4)c4ccccc4nc23)cc1` ?
result: inactive
